Subject Of Test: Group 3 secretory phospholipase A2 (Homo sapiens) (UniProt Q9NZ20)
Sequence (Q9NZ20 whole entry, looked up): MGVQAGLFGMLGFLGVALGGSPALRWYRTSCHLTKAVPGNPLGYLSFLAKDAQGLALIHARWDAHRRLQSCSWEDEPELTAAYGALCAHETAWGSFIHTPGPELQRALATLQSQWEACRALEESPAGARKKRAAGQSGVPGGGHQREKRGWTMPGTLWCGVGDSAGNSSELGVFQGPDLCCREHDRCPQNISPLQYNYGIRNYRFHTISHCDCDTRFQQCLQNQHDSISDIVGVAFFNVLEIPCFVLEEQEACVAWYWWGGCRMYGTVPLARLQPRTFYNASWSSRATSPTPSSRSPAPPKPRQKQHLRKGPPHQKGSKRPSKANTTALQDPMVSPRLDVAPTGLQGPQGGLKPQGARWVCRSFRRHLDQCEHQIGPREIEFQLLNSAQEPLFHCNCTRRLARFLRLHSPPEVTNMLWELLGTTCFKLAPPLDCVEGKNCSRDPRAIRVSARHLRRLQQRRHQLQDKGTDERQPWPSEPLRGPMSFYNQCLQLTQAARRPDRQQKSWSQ
Assay: human group III sPLA2 inhibitors, primary screen, biochemical, QFRET, BODIPY PC-A2 liposome substrate (AID 743126);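 note: 0% = median of test compound wells and 100% = no enzyme DMSO wells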
Condition Description: QFRET BODIPY PC-A2 liposome hydrolysis, fluorescence; at 12.2 µM; stronger effect = higher value
Out of some 370,000 compounds screened, about 2,100 (0.57%) were called active. The list comes from a sample in which actives are over-represented; it also holds close analogues and randomly drawn compounds.
Reported inhibition values follow for various molecules
Answer with a number only, understood to be in %.

A selection of reference data follows.
**Query** Consider the molecule O=C(Nc1ccc(CSc2ccccc2)cc1)c1ccc(CN2CCOCC2)cc1 and give its measured inhibition.
**Result** -16.7

**Query** Entry under review: COc1cccc(CNC(=O)CCN2C(=S)NC(C)(C)CC2C)c1 (stereo not given) . Reported inhibition?
**Result** 6.8

**Query** For CCc1cc(C(c2ccccc2OC)N2CCOCC2)c(NC(=O)c2ccccc2)s1 (stereo not given) , what is its reported inhibition?
**Result** -10.3

**Query** Looking for the measured inhibition of Oc1ccc(/C=C/c2c(F)cccc2F)c2cccnc12 , can you help?
**Result** 16

**Query** For the molecule CCCCNC(=O)C[C@H]1C[C@@]2(C(=O)OC)C(=C[C@H](COCc3ccccc3)O[C@@H]2C)N(Cc2ccc(Cl)cc2Cl)C1=O , what inhibition is on record?
**Result** -3.1

**Query** Request the reported inhibition associated with CC1=CC(C)(C)NC(=S)N1c1ccccc1
**Result** 20.1

**Query** Given CC(C)CC(=O)NC(=S)NNC(=O)c1cccc([N+](=O)[O-])c1 , state its recorded inhibition.
**Result** 24.2

**Query** Name the reported inhibition value associated with the molecule COCC(=O)N[C@@H]1C[C@@H]2O[C@@H](CO)CC[C@@H]2O[C@@H]1CCc1ccc(-c2ccccc2)cc1
**Result** -1.64

Continuing:
**Query** Fill blank: measured inhibition of the molecule CC(C)CC(=O)NC(=S)Nc1ccc(F)cc1F is ____.
**Result** 6.75

**Query** Which inhibition is reported for this molecule? CC1CC(C)(C)NC(=S)N1CCC(=O)N1CCN(Cc2ccccc2)CC1 (stereo not given)
**Result** 8.05
